assay remarks: Toxicity, LD50 (male mice)
condition description: mouse, in vivo
Catalogue of compounds with associated LD50

As a guide, the following entries are already answered.
| compound | LD50 |
| --- | --- |
| CC(C)OC(=O)C(C(=O)OC(C)C)=C1SC(C(=O)O)S1 (centres unmarked) | > 5000 mg/kg |
| CC(C)OC(=O)C(C(=O)OC(C)C)=C1SCC[S+]1[O-] (centres unmarked) | > 6000 mg/kg |
| CC(C)OC(=O)C(C(=O)OC(C)C)=C1SCC(O)S1 (centres unmarked) | > 6590 mg/kg |
| CCOC(=O)C(C(=O)OC(C)C)=C1SCS1 | > 5000 mg/kg |

Would you kindly look at the next entry?
Inquiry: Would you mind telling me what LD50 value was observed for CC(C)OC(=O)C(C(=O)OC(C)C)=C1SCS1 ?
Reply text: > 5000 mg/kg
